target: Mac-1 (CD11b/CD18) (Homo sapiens, UniProt P05107+P11215); construct: methodology to isolate neutrophils from ethylenediaminetetraacetic acid (EDTA)-treated venous blood obtained from healthy human volunteers; endogenous in cells; host or cells: neutrophils (PMN) freshly isolated from venous blood of healthy human volunteers; assay: Human Neutrophil Mac-1 Adhesion Assay (PMN KLH); assay type: cell-based; settings: @ 33 μM; human neutrophils, FMLP-stimulated, KLH coated plates
Sequence (P05107 23-769, other chains not shown): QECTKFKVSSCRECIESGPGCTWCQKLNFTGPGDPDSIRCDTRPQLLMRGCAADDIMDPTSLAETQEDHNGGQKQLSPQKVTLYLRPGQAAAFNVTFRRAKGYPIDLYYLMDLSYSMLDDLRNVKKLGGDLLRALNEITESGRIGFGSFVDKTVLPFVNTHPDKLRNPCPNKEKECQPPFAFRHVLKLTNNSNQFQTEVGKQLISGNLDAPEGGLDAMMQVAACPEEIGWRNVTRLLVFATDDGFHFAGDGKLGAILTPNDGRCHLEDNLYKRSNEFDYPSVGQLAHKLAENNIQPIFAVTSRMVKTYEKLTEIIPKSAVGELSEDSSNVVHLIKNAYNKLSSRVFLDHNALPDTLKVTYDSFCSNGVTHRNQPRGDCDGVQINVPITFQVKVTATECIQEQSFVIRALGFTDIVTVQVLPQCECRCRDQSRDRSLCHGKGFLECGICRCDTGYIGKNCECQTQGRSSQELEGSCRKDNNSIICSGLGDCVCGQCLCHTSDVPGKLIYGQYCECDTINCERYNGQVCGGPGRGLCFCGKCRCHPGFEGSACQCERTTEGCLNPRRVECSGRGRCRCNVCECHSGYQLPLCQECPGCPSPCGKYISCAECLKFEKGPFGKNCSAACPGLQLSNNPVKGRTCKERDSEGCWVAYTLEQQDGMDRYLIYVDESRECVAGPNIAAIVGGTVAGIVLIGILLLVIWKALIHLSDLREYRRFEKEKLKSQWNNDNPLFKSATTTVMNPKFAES
Category scheme (inhibition at 33 µM): low bracket = under 20%, middle bracket = from 20% up to 40%, high bracket = 40% and over

Request: Band assignment needed for `Nc1ccc(-c2n[nH]c(=S)n2-c2ccccc2)cc1` please.
Result: low bracket

Request: Hello team, could you let me know which band the following molecule falls into: `CCn1c(-c2ccc(N)cc2)n[nH]c1=S`
Result: middle bracket

====

target: Mac-1 (CD11b/CD18) (Homo sapiens, UniProt P05107+P11215); construct: methodology to isolate neutrophils from ethylenediaminetetraacetic acid (EDTA)-treated venous blood obtained from healthy human volunteers; endogenous in cells; assay: Human Neutrophil Mac-1 Adhesion Assay (PMN KLH); conditions: human neutrophils, FMLP-stimulated, KLH coated plates
pIC50: −log10 of the molar value.
pIC50 of 6 or higher: true (1). Under 6: false (0).

Field: example entries. Status: answers known.
COc1ccc(-c2n[nH]c(=S)n2-c2ccccc2)cc1    false (0)
CCn1c(S)nnc1-c1ccccc1O    false (0)
CCn1c(-c2ccc(Cl)cc2Cl)n[nH]c1=S    false (0)
Cc1ccccc1-c1n[nH]c(=S)n1-c1ccccc1    true (1)
CCn1c(-c2cc(OC)c(OC)cc2N)n[nH]c1=S    false (0)

Request: Could you please find out whether `COc1ccccc1-c1n[nH]c(=S)n1-c1ccccc1` has pIC50 that meets 6 or exceeds it?
Result: false (0)

Request: Kindly determine if pIC50 recorded for `CCn1c(-c2ccc(OC)c(OC)c2)n[nH]c1=S` is above or exactly 6.
Result: false (0)

Request: # bool: pIC50 of `CCn1c(-c2ccc(OC)cc2)n[nH]c1=S` >= 6
Result: false (0)

====

Here, each record is paired with measured inhibition at 33 µM data.
target: Mac-1 (CD11b/CD18) (Homo sapiens, UniProt P05107+P11215); construct: methodology to isolate neutrophils from ethylenediaminetetraacetic acid (EDTA)-treated venous blood obtained from healthy human volunteers; endogenous in cells; host or cells: neutrophils (PMN) freshly isolated from venous blood of healthy human volunteers; experiment: Human Neutrophil Mac-1 Adhesion Assay (PMN KLH); assay type: cell-based; conditions: @ 33 μM; human neutrophils, FMLP-stimulated, KLH coated plates
Answer format: numeric, % implied, no suffix.

Request: Give inhibition at 33 µM for this entry on Mac-1 (CD11b/CD18) (Homo sapiens, UniProt P05107+P11215): CNc1ccccc1-c1n[nH]c(=S)n1-c1ccccc1 [Example 37]
Result: 7

Request: Write down the reported inhibition at 33 µM (system: Mac-1 (CD11b/CD18) (Homo sapiens, UniProt P05107+P11215)) of S=c1nc(-c2ccccc2)[nH][nH]1 [Example 34]
Result: 58

Request: # assay system Mac-1 (CD11b/CD18) (Homo sapiens, UniProt P05107+P11215): give inhibition at 33 µM of Oc1ccc(-c2n[nH]c(=S)n2-c2ccccc2)cc1 [Example 27]
Result: 6

Request: Param request: inhibition at 33 µM | system Mac-1 (CD11b/CD18) (Homo sapiens, UniProt P05107+P11215) | item Nc1ccccc1-c1n[nH]c(=S)n1N [Example 39]
Result: 57

Request: Tell me its inhibition at 33 µM on Mac-1 (CD11b/CD18) (Homo sapiens, UniProt P05107+P11215): Nc1ccccc1-c1n[nH]c(=S)n1-c1ccccc1 [Example 35]
Result: 24

Request: Lab note: record inhibition at 33 µM of Oc1ccc(-c2n[nH]c(=S)n2Cc2ccccc2)cc1 [Example 29] tested on Mac-1 (CD11b/CD18) (Homo sapiens, UniProt P05107+P11215).
Result: 42

Request: // output inhibition at 33 µM; input COc1cccc(-c2n[nH]c(=S)n2-c2ccccc2)c1 [Example 28] ; system Mac-1 (CD11b/CD18) (Homo sapiens, UniProt P05107+P11215)
Result: 60

Request: Fill in inhibition at 33 µM for Cn1c(-c2ccccc2N)n[nH]c1=S [Example 38] tested with Mac-1 (CD11b/CD18) (Homo sapiens, UniProt P05107+P11215).
Result: -0.1
